assay: NCI Yeast Anticancer Drug Screen. Data for the mlh1 rad18 strain (AID 175); conditions: S. cerevisiae mlh1 rad18 strain growth inhibition; at 50.0 µM; stronger effect = higher value
The panel holds about 79,000 compounds, 15% with a hit somewhere; the sample as a whole holds those more often. Active and inactive are the calls of the source. Cut-off read from the data, not from the text of the source: active = growth inhibition above about 70%; inactive = the rest.
value.kind: growth inhibition

Worked examples, 5 compounds total:
{"compound": "Cc1ccc2ccc(C(Nc3ccccc3)c3ccncc3)c(O)c2n1 (stereo not drawn)", "growth inhibition": "89% (active)"}
{"compound": "O=C(OCc1ccccc1CN1CCOCC1)c1cccc(Br)c1", "growth inhibition": "6.65% (inactive)"}
{"compound": "C=CCOC(=O)C(O)C(CC)CCCCC (stereo not drawn)", "growth inhibition": "-3.3% (inactive)"}
{"compound": "NN(Cc1ccccc1)c1ccccc1", "growth inhibition": "88.6% (active)"}
{"compound": "O=[N+]([O-])c1ccc(NC(=S)N/N=C(\\c2ccccc2)c2ccccn2)cc1", "growth inhibition": "79.8% (active)"}

Prompt: Quick one: growth inhibition of "O=C(O)/C(Cl)=C(/Cl)C(=O)Nc1cccc(Cl)c1" ?
Response: 92.4% (active)

Prompt: Quick one: growth inhibition of "CN(C)CCN(C)N=Nc1c(-c2cccs2)n[nH]c1C(F)(F)F" ?
Response: 99.5% (active)

Prompt: Quick one: growth inhibition of "CC(C)SC(=S)S(=O)(=O)c1ccc(Cl)cc1" ?
Response: 99.7% (active)

Prompt: Quick one: growth inhibition of "CCCCCCCCCCCCCCCCCCNC(=S)/N=C/c1c(O)cc(C)oc1=O" ?
Response: 15.9% (inactive)

Prompt: Quick one: growth inhibition of "N#CC#Cc1cccc(C#CC#N)c1" ?
Response: 99.2% (active)

Prompt: Quick one: growth inhibition of "c1ccc2c(c1)ccc1ncccc12" ?
Response: 64.8% (inactive)

Prompt: Quick one: growth inhibition of Nc1ccc(O)c2c1C(=O)c1ccccc1C2O (stereo not drawn) ?
Response: 94.5% (active)

Prompt: Quick one: growth inhibition of "CN(C)C(=O)/C=C/c1c[nH]c(=O)[nH]c1=O" ?
Response: 2.75% (inactive)

Prompt: Quick one: growth inhibition of "Cc1n(CC(C)C)c2c([n+]1CC(=O)c1ccc([N+](=O)[O-])cc1)C(=O)c1ccccc1C2=O" ?
Response: 90.2% (active)

Prompt: Quick one: growth inhibition of "COc1ccc2nc(N/N=C/c3ccccn3)cc(C)c2c1" ?
Response: 99% (active)

----------
experiment: NCI Yeast Anticancer Drug Screen. Data for the cln2 rad14 strain (AID 165);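 note: 0% = growth equal to vehicle treated cultures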; conditions: S. cerevisiae cln2 rad14 strain, at 5.0 µM (retest, dose inferred, filed as 0.5), stronger effect = higher value
About 79,000 compounds went through this panel and 15% of them were active in at least one assay; those are over-represented in the sample as a whole.
Documented growth inhibition across a set of compounds
# value in %; strip the unit string

Worked examples, 3 compounds total:
{"compound": "Cc1ccc(C)c2[nH]c(-c3ccccc3)cc12", "reported.value": 0}
{"compound": "O=C(O)C(Br)C(Br)C(=O)Nc1ccc(Cl)c(Cl)c1 (stereo not drawn)", "reported.value": 25}
{"compound": "c1ccc2c(c1)ccc1ncccc12", "reported.value": 2}

Prompt: Quick one: growth inhibition of COc1ccc(C2c3cc4c(cc3OC(NCCO)C2C)OCO4)cc1 (stereo not drawn) ?
Response: 5

Prompt: Quick one: growth inhibition of "COc1ccc2c(Cc3ccc(Cl)cc3)cncc2c1O" ?
Response: 2

Prompt: Quick one: growth inhibition of "Cc1cccc(/C=N/NC(=S)Nc2ccc(Cl)cc2)n1" ?
Response: -25

Prompt: Quick one: growth inhibition of "Cc1[nH]nc(-c2cccnc2)c1N=NN1CCOCC1" ?
Response: -2

Prompt: Quick one: growth inhibition of "CN(C)CCCNCC(=O)Nc1ccc(S(=O)(=O)c2ccc(NC(=O)CNCCCN(C)C)cc2)cc1" ?
Response: 7

Prompt: Quick one: growth inhibition of CS(=O)c1cc(=O)c2ccccc2s1 (stereo not drawn) ?
Response: 10

Prompt: Quick one: growth inhibition of "Brc1ccc(N=Nc2ccc(-c3ccc[cH-]3)cc2)cc1.[Fe+2].c1cc[cH-]c1" ?
Response: 8

Prompt: Quick one: growth inhibition of "Nc1cc2[nH]c(=O)c3cc(Cl)ccc3c2cc1Cl" ?
Response: 8

Prompt: Quick one: growth inhibition of "Cc1ccc(-n2c(CSc3ccc(Cl)cc3)nnc2SCc2nc3ccccc3[nH]2)cc1" ?
Response: -4

Prompt: Quick one: growth inhibition of "O=C1CNCCCN2CCN(CCCNCC(=O)Nc3ccc(cc3)S(=O)(=O)c3ccc(cc3)NC(=O)CNCCCN3CCN(CCCNCC(=O)Nc4ccc(cc4)S(=O)(=O)c4ccc(cc4)N1)CC3)CC2" ?
Response: -5

Prompt: Quick one: growth inhibition of "CCOC(=O)C1=C(c2ccccc2)N(C)c2ccccc2S1" ?
Response: -1

Prompt: Quick one: growth inhibition of "Oc1ccccc1C1N(Cc2ccc(Cl)cc2)CCN1Cc1ccc(Cl)cc1" ?
Response: 14

Prompt: Quick one: growth inhibition of "O=C1CN(CCN2CCOCC2)CC(=O)N2CCCCN12" ?
Response: -8

Prompt: Quick one: growth inhibition of "COc1ccc(/C=C2\CCCc3ccccc3C2=O)cc1" ?
Response: -12

Prompt: Quick one: growth inhibition of Cc1cc(O)ccc1C1(c2ccc(F)cc2)OC(=O)c2ccccc21 (stereo not drawn) ?
Response: 31

Prompt: Quick one: growth inhibition of "Cc1ccc(S(=O)(=O)NCCSSCCNS(=O)(=O)c2ccc(C)cc2)cc1" ?
Response: -6

Prompt: Quick one: growth inhibition of "C=CCOC(=O)CCC(=O)N(CC)CC" ?
Response: -7

----------
test: NCI Yeast Anticancer Drug Screen. Data for the sgs1 mgt1 strain (AID 161);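 note: 0% = growth of cultures given vehicle only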; conditions: S. cerevisiae sgs1 mgt1 strain, at 50.0 µM (retest, dose inferred, filed as 5.0), stronger effect = higher value
The panel holds about 79,000 compounds, 15% with a hit somewhere; the sample as a whole holds those more often.
value.kind: growth inhibition (%)
# value in %; strip the unit string

Worked examples, 3 compounds total:
{"compound": "F[Si](c1ccccc1)(c1ccccc1)c1ccccc1", "growth inhibition, %": 79}
{"compound": "ClC/C=C/c1ccccc1", "growth inhibition, %": 15}
{"compound": "CC[N+](C)(CC)CCC[n+]1c(-c2ccccc2)c2cc(N)ccc2c2ccc(N)cc21", "growth inhibition, %": 33}

Prompt: Quick one: growth inhibition of NC1NCCC(=O)N1CCc1c[nH]c2ccccc12 (configuration not stated) ?
Response: 99

Prompt: Quick one: growth inhibition of "Clc1ccc(CN2COc3c(ccc4cccnc34)C2)cc1" ?
Response: 97

Prompt: Quick one: growth inhibition of O=C1CCC(Cc2ccc(C(F)(F)F)cc2)C(=O)N1 (configuration not stated) ?
Response: 92

Prompt: Quick one: growth inhibition of "CC(=O)Nc1c([N+](=O)[O-])cc2c3c(cccc13)C=C2" ?
Response: 56

----------
Documented growth inhibition across a set of compounds
assay: NCI Yeast Anticancer Drug Screen. Data for the mec2-1 strain (AID 157); conditions: S. cerevisiae mec2-1 strain, at 5.0 µM (retest, dose inferred, filed as 0.5), stronger effect = higher value
Compounds without any hit were thinned out: in the full panel of roughly 79,000, 15% have a hit.
# value in %; strip the unit string

Worked examples, 8 compounds total:
{"compound": "CC[O-].CC[O-].[O-]c1ccccc1C=Nc1ccccc1.[O-]c1ccccc1C=Nc1ccccc1.[Ti+4]", "measurement.units": "%", "growth inhibition": 22}
{"compound": "COc1ccc2c(c1)[n+]([O-])c(-c1ccc(Cl)cc1)c(N)[n+]2[O-]", "measurement.units": "%", "growth inhibition": 29}
{"compound": "S=c1[nH]c(-c2ccccc2)cs1", "measurement.units": "%", "growth inhibition": 0}
{"compound": "CCCCN(CCC(=O)O)c1ccc(/C=C\\c2ccnc3ccccc23)cc1", "measurement.units": "%", "growth inhibition": 6}
{"compound": "COC(=O)c1c[nH]c2ccc(Br)cc12", "measurement.units": "%", "growth inhibition": 8}
{"compound": "C/C(=N/NC(=O)Nc1ccc(N=Nc2ccccc2)cc1)c1ccccn1", "measurement.units": "%", "growth inhibition": -7}
{"compound": "CS(=O)(=O)Nc1ccc(Nc2c3ccccc3nc3ccccc23)cc1", "measurement.units": "%", "growth inhibition": -7}
{"compound": "CC(=O)OC1CCC2(C)C(C1)C(OC(C)=O)CC1C3CCC(c4cccc(=O)o4)C3(C)CCC12 (centres undefined)", "measurement.units": "%", "growth inhibition": 11}

Prompt: Quick one: growth inhibition of "CCN(CC)CCSCCCNc1cc(OC)cc2cccnc12" ?
Response: 6

Prompt: Quick one: growth inhibition of O=C(Cc1ccccc1)OC(C(=O)c1ccccc1)c1ccccc1 (centres undefined) ?
Response: 7

Prompt: Quick one: growth inhibition of COc1ccc(C2SCC(=O)N2c2ccc(-c3ccc(-n4c(-c5ccccc5)nc5ccccc5c4=O)cc3)cc2)cc1 (centres undefined) ?
Response: 1

Prompt: Quick one: growth inhibition of "O=Cc1ccc(-c2nccc3c2[nH]c2ccccc23)o1" ?
Response: 15

Prompt: Quick one: growth inhibition of O=C1OC(CCl)CC12CC(CCl)OC2=O (centres undefined) ?
Response: -4

Prompt: Quick one: growth inhibition of "CC1CCN(CC(=O)N2c3ccccc3Sc3cc4ccccc4cc32)CC1" ?
Response: 4

Prompt: Quick one: growth inhibition of "Oc1ccc(Cc2ccccc2)cc1Cl" ?
Response: -2

Prompt: Quick one: growth inhibition of "FC(F)(F)c1ccccc1NC(=S)SCc1ccco1" ?
Response: 1

Prompt: Quick one: growth inhibition of "O=C1NC(=S)S/C1=C\c1cc(Cl)ccc1O" ?
Response: -4

Prompt: Quick one: growth inhibition of "c1cc[c]([Sn]([O]c2cccc3cccnc23)([c]2ccccc2)[c]2ccccc2)cc1" ?
Response: 100

Prompt: Quick one: growth inhibition of "C(=C1/CNC/C(=C/c2ccccc2)C1)/c1ccccc1" ?
Response: 17

Prompt: Quick one: growth inhibition of "Cc1c2cnccc2c(C)c2c1c1ccccc1n2CCCN" ?
Response: 14

Prompt: Quick one: growth inhibition of "COc1ccc(COCCOCc2nc(C#N)c(N)o2)cc1" ?
Response: 13
